# assayed_target: N-terminal Xaa-Pro-Lys N-methyltransferase 1 (Homo sapiens) (UniProt Q9BV86)
# Sequence (Q9BV86 whole entry, looked up): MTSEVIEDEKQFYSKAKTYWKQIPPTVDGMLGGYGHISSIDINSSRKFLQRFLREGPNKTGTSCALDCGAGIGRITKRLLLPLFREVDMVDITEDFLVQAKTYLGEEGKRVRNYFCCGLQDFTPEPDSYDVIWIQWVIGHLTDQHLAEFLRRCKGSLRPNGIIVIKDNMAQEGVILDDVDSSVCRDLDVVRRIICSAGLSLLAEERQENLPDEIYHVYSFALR
# run_description: Confirmatory qHTS for Inhibitors of N-terminal methyltransferase 1 (NTMT1): MTaseGlo Assay (AID 1645874); note: nearly all actives have a fitted effect of over 65% in size
# condition_info: NTMT1 enzyme, MTase-Glo SAH luminescence; series mostly up to 100 µM
Records with an inconclusive call do not appear. Activity calls are given as the source filed them. Calls come from the whole dose curve; as a rule, active = well fitted inhibition curve with a large enough effect; inconclusive = small, poorly fitted or top-dose-only effect; inactive = no such curve, though single readings can be large or run the other way.
Give one outcome, nothing more. List: active, inactive

Here's what some known entries look like.
> print(dat)
                           line.notation  class.label
1   NC(=O)C1CCN(c2nc(-c3ccccc3Cl)cs2)CC1     inactive
2  Cc1cccc(-c2ccc3ncnc(NCc4cccs4)c3c2)c1       active
3  CN(C)C(=O)c1ccc(-c2cc[nH]c(=O)c2N)cc1     inactive

QUERY: Which result was noted for this molecule in the test: COc1cc(Nc2nc(-c3ccncc3)nc3ccccc23)ccc1N1CCN(C)CC1
RESULT: active

QUERY: Which result was noted for this molecule in the test: CC(C)(C)c1ccc(-c2csc(N3CCC(C(N)=O)CC3)n2)cc1
RESULT: inactive

QUERY: Which result was noted for this molecule in the test: Cc1nc(C)c(-c2ccc3ncnc(NCc4ncc[nH]4)c3c2)s1
RESULT: active
